Provide the recorded Tox-50 for the entries that follow.
# Test system: HepG2.2.15 cells
# Assay text: Cytotoxicity determination in HepG2.2.15 cells
# Format: cell-based
# Measurement setup: 50% cytotoxicity
# From the text: Before harvesting the supernatants and/or cells to determine the antiviral effect, the HepG2.2.15 cells were examined under the light microscope or by means of biochemical detection methods (for example Alamar Blue stain or Trypan Blue stain) for cytotoxic changes. Substance-induced cytotoxic or cytostatic changes in the HepG2.2.15 cells were detected, for example, under the light microscope as changes in cell morphology. […]

Looking up Cc1oncc1C(=O)Nc1ccc(C(F)(F)F)cc1 [Leflunamide, reference compound] , I see its Tox-50 listed as 70 μM/l

Looking up Cc1cccc(NC(=S)c2c(C)noc2C)c1 [Example 29] , I see its Tox-50 listed as >100 μM/l

Looking up Cc1cc(NC(=O)c2c(C)noc2C)ccc1F [Example 2] , I see its Tox-50 listed as >100 μM/l

Looking up CCCc1onc(C)c1C(=O)Nc1cccc(C)c1 [Example 21] , I see its Tox-50 listed as >100 μM/l

Looking up Cc1cc(NC(=O)c2c(C)noc2C(F)(F)F)ccc1F [Example 16] , I see its Tox-50 listed as >100 μM/l

Looking up CCc1onc(C)c1C(=O)Nc1ccc(F)c(Cl)c1 [Example 12] , I see its Tox-50 listed as >100 μM/l
